MIC overview
Test system: Past. multocida PA2
assay method text: Veterinary bacteria MIC, Diagnostic Sensitivity Test Agar (Table 2)
Assay type: cell-based
measurement parameters: Pasteurella multocida, PA2, 18 h
Procedure: The values were determined using a two fold serial dilutions in Diagnostic Sensitivity Test Agar with an inoculum of 10^4 organisms and incubation for 18 hours at 37° C.
Reply numerically in µg/mL, unit not repeated.

C/C(=C\C(=O)OCc1ccc([N+](=O)[O-])cc1[N+](=O)[O-])CC1OCC(CC2OC2C(C)C(C)O)C(O)C1O (centres unmarked) [Example 10, 2,4-dinitrobenzyl monate A] :: 0.625
C/C(=C\C(=O)OCc1ccc([N+](=O)[O-])cc1Cl)CC1OCC(CC2OC2C(C)C(C)O)C(O)C1O (centres unmarked) [Example 11, 2-chloro-4-nitrobenzyl monate A] :: 0.156

In: Dear colleague, please send me the reported MIC for C/C(=C\C(=O)OCc1cc([N+](=O)[O-])cc([N+](=O)[O-])c1C)CC1OCC(CC2OC2C(C)C(C)O)C(O)C1O (centres unmarked) [Example 7, 3,5-dinitro-2-methylbenzyl monate A] when you can.
Out: 1.25

In: Dear colleague, please send me the reported MIC for C/C(=C\C(=O)OCc1cc([N+](=O)[O-])cc([N+](=O)[O-])c1)CC1OCC(CC2OC2C(C)C(C)O)C(O)C1O (centres unmarked) [Example 6, 3,5-dinitrobenzyl monate A] when you can.
Out: 0.625

In: Dear colleague, please send me the reported MIC for C/C(=C\C(=O)OCc1ccc([N+](=O)[O-])c([N+](=O)[O-])c1)CC1OCC(CC2OC2C(C)C(C)O)C(O)C1O (centres unmarked) [Example 9, 3,4-dinitrobenzyl monate A] when you can.
Out: 0.156

* * *

MIC overview
System: Strep. suis (group D) SPS11
assay method text: Veterinary bacteria MIC, Diagnostic Sensitivity Test Agar (Table 2)
Type: cell-based
measurement parameters: Streptococcus suis; Strep. suis (group D) SPS11; DST Agar, 10^4 organisms, 18 hours 37° C.; read-out: MIC
Reply numerically in µg/mL, unit not repeated.

Recorded results for 2 compounds are shown here.
C/C(=C\C(=O)OCc1ccccc1[N+](=O)[O-])CC1OCC(CC2OC2C(C)C(C)O)C(O)C1O (stereo not drawn) [C, O--nitrobenzyl monate A, reference compound] :: 20
C/C(=C\C(=O)OC(C)c1cccc([N+](=O)[O-])c1)CC1OCC(CC2OC2C(C)C(C)O)C(O)C1O (stereo not drawn) [Example 3, 1-(m-nitrophenyl)ethyl monate A] :: 40

In: Dear colleague, please send me the reported MIC for C/C(=C\C(=O)OCc1cccc([N+](=O)[O-])c1)CC1OCC(CC2OC2C(C)C(C)O)C(O)C1O (stereo not drawn) [Example 2, m-nitrobenzyl monate A] when you can.
Out: 5

* * *

Test system: E. coli ESS
assay method text: Human bacteria MIC, nutrient agar with chocolated horse blood (Table 3)
Type: cell-based
measurement parameters: Escherichia coli; E. coli ESS; nutrient agar 5% chocolated horse blood, 18 hours 37° C.; read-out: MIC
property: MIC (µg/mL)
Reply numerically in µg/mL, unit not repeated.

Recorded results for 4 molecules are shown here.
C/C(=C\C(=O)OCc1ccccc1[N+](=O)[O-])CC1OCC(CC2OC2C(C)C(C)O)C(O)C1O (stereo not drawn) [C, O--nitrobenzyl monate A, reference compound] :: 2.5
C/C(=C\C(=O)OCc1cccc([N+](=O)[O-])c1)CC1OCC(CC2OC2C(C)C(C)O)C(O)C1O (stereo not drawn) [Example 2, m-nitrobenzyl monate A] :: 5
C/C(=C\C(=O)OCc1ccc([N+](=O)[O-])cc1)CC1OCC(CC2OC2C(C)C(C)O)C(O)C1O (stereo not drawn) [Example 1, p-nitrobenzyl monate A] :: 0.5
C/C(=C\C(=O)OC(C)c1cccc([N+](=O)[O-])c1)CC1OCC(CC2OC2C(C)C(C)O)C(O)C1O (stereo not drawn) [Example 3, 1-(m-nitrophenyl)ethyl monate A] :: 10

In: Dear colleague, please send me the reported MIC for C/C(=C\C(=O)OCc1cccc([N+](=O)[O-])c1)CC1OCC(C/C=C/C(C)C(C)O)C(O)C1O (stereo not drawn) [Example 5, m-nitrobenzyl monate C] when you can.
Out: 10

In: Dear colleague, please send me the reported MIC for C/C(=C\C(=O)OC(C)c1ccc([N+](=O)[O-])cc1)CC1OCC(CC2OC2C(C)C(C)O)C(O)C1O (stereo not drawn) [Example 4, 1-(p-nitrophenyl)ethyl monate A] when you can.
Out: 2.5

Recorded values, source patent US4436751A.
